Target: T1, human HER2 on T6-17 cells (human, UniProt P04626 23-1255)
T1 construct: whole, on cells; also called HER2/neu; human epidermal growth factor receptor 2
Test: FACS on T6-17 cells expressing human HER2, detected by anti-his tag and secondary antibodies; control (anti-his tag and secondary antibodies only) has Geo mean 3.99
assayReadout: FACS Geo mean

• LS22FcG7 (Fc fusion, Wild type Fc fragment with the N-terminal MLCGGGG before the S22 peptide, and a His tag) MLCGGGGYCFPDEEGACYGGGGGSDKTHTCPPCPAPELLGGPSVFLFPPKPKDTLMISRTPEVTCVVVDVSHEDPEVKFNWYVDGVEVHNAKTKPREEQYNSTYRVVSVLTVLHQDWLNGKEYKCKVSNKALPAPIEKTISKAKGQPREPQVYTLPPSRDELTKNQVSLTCLVKGFYPSDIAVEWESNGQPENNYKTTPPVLDSDGSFFLYSKLTVDKSRWQQGNVFSCSVMHEALHNHYTQKSLSLSLEHHHHHH = 51
• LS22FcT322AS7 (Fc fusion) S22 peptide-Fc fusion chain with C-terminal His tag: MLCGGGSYCFPDEEGACYGGGGGSDKTHTCPPCPAPELLGGPSVFLFPPKPKDTLMISRTPEVTCVVVDVSHEDPEVKFNWYVDGVEVHNAKTKPREEQYNSAYRVVSVLTVLHQDWLNGKEYKCKVSNKALPAPIEKTISKAKGQPREPQVYTLPPSRDELTKNQVSLTCLVKGFYPSDIAVEWESNGQPENNYKTTPPVLDSDGSFFLYSKLTVDKSRWQQGNVFSCSVMHEALHNHYTQKSLSLSLEHHHHHH = 28.7
• LS22FcT322AG7 (Fc fusion, It has the N-terminal MLCGGGG before the S22 peptide, the T322A Fc and a His tag; also called S22-FcT322A#2; S22FcT322A#2) MLCGGGGYCFPDEEGACYGGGGGSDKTHTCPPCPAPELLGGPSVFLFPPKPKDTLMISRTPEVTCVVVDVSHEDPEVKFNWYVDGVEVHNAKTKPREEQYNSAYRVVSVLTVLHQDWLNGKEYKCKVSNKALPAPIEKTISKAKGQPREPQVYTLPPSRDELTKNQVSLTCLVKGFYPSDIAVEWESNGQPENNYKTTPPVLDSDGSFFLYSKLTVDKSRWQQGNVFSCSVMHEALHNHYTQKSLSLSLEHHHHHH = 39.1

Now look at this one.
Lab note: S22-Fc (Fc fusion, S22 peptide, glycine-serine linker, human IgG1 Fc (hinge part, CH2, CH3) and C-terminal His tag; Expressed in E. coli and purified on Ni-sepharose; also called S22-Fc fusion protein) MAYCFPDEEGACYGGGGGSDKTHTCPPCPAPELLGGPSVFLFPPKPKDTLMISRTPEVTCVVVDVSHEDPEVKFNWYVDGVEVHNAKTKPREEQYNSTYRVVSVLTVLHQDWLNGKEYKCKVSNKALPAPIEKTISKAKGQPREPQVYTLPPSRDELTKNQVSLTCLVKGFYPSDIAVEWESNGQPENNYKTTPPVLDSDGSFFLYSKLTVDKSRWQQGNVFSCSVMHEALHNHYTQKSLSLSLEHHHHHH gave FACS Geo mean of 27.2
